# assay overview: E. coli acrAB mutant growth effects, primary screen, E. coli filamentation inducers, strain DRC39, OD650, 24 h (AID 1178);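 note: growth measured as culture turbidity by optical density at 650 nm; test concentration not given here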
# reported conditions: higher = more signal, called active from +8 up or from −8 down
Label rule, in plain words: z-score of 0.3 and up is 1 (yes), under 0.3 is 0 (no).

[Q] Answer whether z-score of `COCCCNC(=O)[C@@]1(Sc2ccc(C)cc2)CC(=O)N(Cc2ccccc2)[C@@H]1c1ccc(CO)cc1I` is greater than or equal to 0.3.
[A] 0 (no)

[Q] Answer whether z-score of COc1ccc(O[C@H]2C=C[C@@H](c3ccccc3)O[C@@H]2COC(=O)CCC(C)=NOC(C)CN2CCCCc3nc(C)c(C)cc32)cc1 (stereo not given in full) is greater than or equal to 0.3.
[A] 1 (yes)

[Q] Answer whether z-score of `COCCOC(=O)N1C(=O)[C@@]2(c3cc(C#Cc4ccc(OC)cc4)ccc31)[C@H](C(=O)N1CCN(c3ncccn3)CC1)[C@H]1C(=O)O[C@H](c3ccccc3)[C@H](c3ccccc3)N1[C@@H]2c1ccc(OCCO)cc1` is greater than or equal to 0.3.
[A] 0 (no)

[Q] Answer whether z-score of `CN(C)C(=O)[C@@]1(Cc2ccccc2)N=C(c2ccc(OCCCO)cc2)O[C@H]1c1ccccc1CN=[N+]=[N-]` is greater than or equal to 0.3.
[A] 0 (no)

[Q] Answer whether z-score of `CN1C(=O)[C@@]2(CCC(=O)OC(C)(C)C)N=C(c3ccc(OCCCO)cc3)O[C@H]2c2ccccc21` is greater than or equal to 0.3.
[A] 1 (yes)

FYI, the data here is from PubChem BioAssay.
